Values compiled from ChEMBL document CHEMBL1137710.

system: OVCAR-8; assay: Growth inhibition of human OVCAR8 cells after 48 hrs by sulforhodamine B assay; assay type: functional; conditions: OVCAR-8, 48 h
Please respond with reported GI50 for every item in the list.
Your answer is read as µM, so omit the unit and give the number.

Challenge: Sample "COc1ccc(Oc2nc3cc(N)cc(N)c3nc2-c2ccccc2)cc1" — what was its GI50?
Response given: 32.4

Challenge: What does the data say about its GI50? Entry: "COc1ccc(CNc2nc3cc(N)cc(N)c3nc2-c2ccccc2)cc1"
Response given: 14.8

Challenge: Name the reported GI50 value associated with the molecule "Nc1cc(N)c2nc(-c3ccccc3)c(Oc3ccc(Cl)c(Cl)c3)nc2c1"
Response given: 28.2

Challenge: Please give the measured GI50 for this molecule: "Nc1cc(N)c2nc(-c3ccccc3)c(Sc3ccc(F)cc3)nc2c1"
Response given: 16.6

Challenge: Given the entry "Nc1cc(N)c2nc(-c3ccccc3)c(NCc3ccc(F)cc3)nc2c1" , report its measured GI50.
Response given: 2.63

Challenge: GET /values?readout=GI50&item= "Nc1cc(N)c2nc(-c3ccccc3)c(Sc3ccc(Cl)c(Cl)c3)nc2c1"
Response given: 24.5

----------
test system: SK-MEL-2; assay: Growth inhibition of human SK-MEL-2 cells after 48 hrs by sulforhodamine B assay; format: functional; settings: SK-MEL-2, 48 h, read-out: pTGI (converted)
Would you kindly list TGI for each of these compounds?

Challenge: Field: TGI (SK-MEL-2). Entry: "Nc1cc(N)c2nc(-c3ccccc3)c(Sc3ccc(F)cc3)nc2c1"
Response given: > 100 µM

Challenge: Any idea what TGI came out for "COc1ccc(Sc2nc3cc(N)cc(N)c3nc2-c2ccccc2)cc1" on SK-MEL-2?
Response given: > 100 µM

Challenge: Item: "COc1cc(CNc2nc3cc(N)cc(N)c3nc2-c2ccccc2)cc(OC)c1OC" Test system: SK-MEL-2 Read-out: TGI Value: ?
Response given: > 50.1 µM

Challenge: API: value(readout=TGI, system=SK-MEL-2) for record "Nc1cc(N)c2nc(-c3ccccc3)c(Oc3ccc(F)cc3)nc2c1"
Response given: > 100 µM

Challenge: Give the reported TGI for "Nc1cc(N)c2nc(-c3ccccc3)c(NCc3ccc(F)cc3)nc2c1" (system: SK-MEL-2).
Response given: > 100 µM

----------
tested on: PC-3; experiment: Growth inhibition of human PC3 cells after 48 hrs by sulforhodamine B assay; assay type: functional; conditions: PC-3, 48 h, read-out: pTGI (converted)
Give measured TGI for each item. Keep answers brief.

Challenge: Could you tell me which TGI is on file for "Nc1cc(N)c2nc(-c3ccccc3)c(Sc3ccc(F)cc3)nc2c1" ?
Response given: > 100 µM

Challenge: Which value of TGI has been reported for "COc1cc(CNc2nc3cc(N)cc(N)c3nc2-c2ccccc2)cc(OC)c1OC" in the records?
Response given: > 50.1 µM

Challenge: May I ask what TGI has been recorded for "COc1ccc(Oc2nc3cc(N)cc(N)c3nc2-c2ccccc2)cc1" ?
Response given: > 100 µM

----------
test system: SK-MEL-2; assay: Growth inhibition of human SK-MEL-2 cells after 48 hrs by sulforhodamine B assay; assay type: functional; settings: SK-MEL-2, 48 h, read-out: pLC50 (the source's name) (converted)
Consider the following compounds; for each one, report its CC50.
Provide only the numeric value, understood in µM.

Challenge: What value of CC50 has been recorded for this entry: "Nc1cc(N)c2nc(-c3ccccc3)c(NCc3ccc(Cl)c(Cl)c3)nc2c1"
Response given: 9.55

Challenge: Suppose we examine the compound "Nc1cc(N)c2nc(-c3ccccc3)c(Oc3ccc(Cl)c(Cl)c3)nc2c1" ; what CC50 value has been reported?
Response given: 89.1

----------
For each record, write down the corresponding CC50.
tested on: SK-MEL-2; assay: Growth inhibition of human SK-MEL-2 cells after 48 hrs by sulforhodamine B assay; type: functional; settings: SK-MEL-2, 48 h, read-out: pLC50 (the source's name) (converted)

Challenge: CC50 lookup needed for "COc1ccc(Sc2nc3cc(N)cc(N)c3nc2-c2ccccc2)cc1" , thanks.
Response given: > 100 µM

Challenge: # query: CC50 of entry "COc1ccc(Oc2nc3cc(N)cc(N)c3nc2-c2ccccc2)cc1"
Response given: > 100 µM

Challenge: Which value of CC50 has been reported for "Nc1cc(N)c2nc(-c3ccccc3)c(Oc3ccc(F)cc3)nc2c1" in the records?
Response given: > 100 µM
